B1: LINE1-full (parent)
chain: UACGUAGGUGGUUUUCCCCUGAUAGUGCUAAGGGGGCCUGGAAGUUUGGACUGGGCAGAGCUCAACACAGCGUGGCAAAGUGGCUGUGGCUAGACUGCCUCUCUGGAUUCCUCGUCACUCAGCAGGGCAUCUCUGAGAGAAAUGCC

# Variants of: B1
# assay_notes: self-cleavage, relative activity (ratio to wild type); higher = more cleavage; in vitro, sequencing; the parent is a self-cleaving ribozyme
readout: self-cleavage

## Input Tell me its self-cleavage given UACGUAGGUGGUUUUCCCCUGAUAGUGCUAAGGGGGCCUGGAAGUUUGGACUGGGCAGAGCUCAACACAGCGUGGCAAAGUGGCUGCGGCUAGACUGCCCCUCUGGAUUCCUCGUCACUCAGCAGGGCAUCUCUGAGAGAAAUGCC [U87C U100C] as the entry.
## Output 0.26

## Input Answer with reported self-cleavage of UACGUAGGUGGUAUUCCCCUGAUAGUGCUAAGGGGGCCUGGAAGUUUGGACUGGGCAGAGCUCAACACAGCGUGGCAAAGUGGCUGUGGCUAGACUGCCUCGCUGGAUUCCUCGUCACUCAGCAGGGCAUCUCUGAGAGAAAUGCC [U13A U102G]
## Output 0.41

## Input Check the records and state self-cleavage for UACGUAGGUGGUUUUCCCCUGAUAGUGCUAAGGGGGCCUGGAAGUUUGGACUGGGCAGAGCUCAACACAGCGGGGCAAAGUGGCUGAGGCUAGACUGCCUCUCUGGAUUCCUCGUCACUCAGCAGGGCAUCUCUGAGAGAAAUGCC [U73G U87A]
## Output 0.03
